assay: chemical genetic growth profiling, strain panel (AID 1159580);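 further: tested at 20 µM; growth read once vehicle control cultures reached saturation at 30 °C; 1 = growth at the plate median or of vehicle wells; lower values mean less growth of the strain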; settings: S. cerevisiae deletion strains, growth OD, locus YKL190W, strain CNB1, hits give low values
Out of some 5,500 compounds screened, about 2,000 (36%) were called active. Roughly 18% stayed inconclusive and do not appear here. Some of the results follow.
normalized growth listing for selected compounds.
The response must contain the number and no unit.

These recorded examples may help you get a feel for the data.
INSERT INTO results (compound, recorded_number) VALUES
  ('O=[N+]([O-])c1ccc(NCCCCCO)nc1', 1.01),
  ('COc1cc(Cc2cnc(N)nc2N)cc(OC)c1OC', 1.01),
  ('O=C(c1ccccc1)c1ccc2n1CCC2C(=O)O (stereo not drawn)', 0.999),
  ('Cn1nccc1NS(=O)(=O)c1ccc(C(C)(C)C)cc1', 0.96);

Would you mind telling me what normalized growth value was observed for O=C(N[C@@H](CO)[C@H](O)c1ccc([N+](=O)[O-])cc1)C(Cl)Cl ? 1

Here is the next compound: COc1cc(O)c2c(c1)C(=O)c1cc(C)cc(O)c1C2=O 1.02

Here is the next compound: O=C(O)CCC(=O)OC[C@@H](NC(=O)C(Cl)Cl)[C@H](O)c1ccc([N+](=O)[O-])cc1 0.993

Here is the next compound: Cc1c(NC(C)C)c(=O)n(-c2ccccc2)n1C 1

Here is the next compound: C=C[C@H]1CN2CC[C@H]1C[C@H]2[C@H](O)c1ccnc2ccccc12 0.986

Here is the next compound: O=C(O)c1cc(=O)c2ccccc2[nH]1 1

Here is the next compound: CC1(C)CC23C(=O)CCC(O)C2(C)CCC13 (stereo not drawn) 1.01

Here is the next compound: Cc1ccc(O)c(C(CCN(C(C)C)C(C)C)c2ccccc2)c1 (stereo not drawn) 1.01

Here is the next compound: Nc1nc(Sc2ccc(C(F)(F)F)cc2[N+](=O)[O-])n[nH]1 1

Here is the next compound: Nc1cccc2c1C(=O)c1ccccc1-2 0.046

Here is the next compound: COc1cc2cccc(OC)c(=O)c2c(OC)c1OC 1.01

Here is the next compound: CC(=O)NS(=O)(=O)c1ccc(N)cc1 0.997

Here is the next compound: CC(=O)Oc1c(C)c(C)c2c(c1C)CCC(C)(CCCC(C)CCCC(C)CCCC(C)C)O2 (stereo not drawn) 1.02

Here is the next compound: CC(=O)c1ccc(Sc2ccccn2)c([N+](=O)[O-])c1 0.997

* * *

normalized growth listing for selected compounds.
assay: chemical genetic growth profiling, strain panel (AID 1159580);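 further: tested at 20 µM; growth read once vehicle control cultures reached saturation at 30 °C; 1 = growth at the plate median or of vehicle wells; lower values mean less growth of the strain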; details: S. cerevisiae deletion strains, growth OD, locus YJR043C, strain POL32, hits give low values
The whole screen tested about 5,500 compounds, of which about 2,000 (36%) were called active. Another 18% or so got no clear call; they are omitted. This is one part of the list.
The response must contain the number and no unit.

These recorded examples may help you get a feel for the data.
INSERT INTO assay_data (compound, recorded_number) VALUES
  ('CC(C)c1cc2c(c(O)c1O)[C@@]1(C(=O)O)CCCC(C)(C)C1CC2 (stereo not given in full)', 0.982),
  ('CCCCN(CC)c1c([N+](=O)[O-])cc(C(F)(F)F)cc1[N+](=O)[O-]', 1.02),
  ('C=C(C)C1Cc2c(ccc(C(=O)O)c2O)O1 (stereo not given)', 1.02),
  ('CNC(=O)Oc1ccccc1OC(C)C', 1.01),
  ('COc1ccc(CCNC(=O)c2ccccc2Cl)cc1OC', 1);

Would you mind telling me what normalized growth value was observed for O[C@H]1[C@H](O)[C@@H](O)C2OC[C@H]1O2 ? 0.999
